These measurements were taken from the nanobody polyreactivity screen of Harvey et al. (2022).

- protocol.details: yeast display, Sf9 membrane polyspecificity reagent, FACS + sequencing; frameworks hold sequencing errors
measured.parameter: polyreactivity (PSR sort gate)

>>> measured_value("QVQLVESGGGLVQAGGSLRLSCAASGRTFVINSMGWYRQAPGKERELVAAITWGGGSTYYADSVKGRFTISRDNAKNTVYLQMNSLKPEDTAVYYCATSYSVQYGGSGYYWGQGTQVTVSS")
"low polyreactivity"
>>> measured_value("QVQHVESGGGLVQAGGSLRLSCAASGFIFDRYAMGWYRQAPGKERELVAAISSGGSTYYADSVKGRFTISRDNAKNTVYLQMNSLKPEDTAVYYCAAESWLNFIYEYDYWGQGTQVTVSS")
"low polyreactivity"
>>> measured_value("QVQLVESGGGLVQAGGSLRLSCAASGITFTFNAMGWYRQAPGKERELVAAITWSGGSTFYADSVKGRFTITRDNAKNTVYLQMNSLKPEDTAVYYCARDTELYVRWLDYWGQGTQVTVSS")
"low polyreactivity"
>>> measured_value("QVQLEESGGGLVQAGGSLRLSCAASGITFEAYAMGWYRQAPGKERELVAAIRSSGTSTYYADSVMGRFTISRDNAKNTVYLQMNSLKPEDTAVYYCNRARSSSRYDYWGQGTQVTVSS")
"low polyreactivity"

###

- protocol.details: yeast display, Sf9 membrane polyspecificity reagent, FACS + sequencing; frameworks hold sequencing errors
measured.parameter: polyreactivity (PSR sort gate)

Answered cases to consult:
>>> measured_value("QVQLVESGGGLVQAGGSLRLSCAASGRTFGTNAMGWYRQAPGKERELVAAISRRGGSTYYADSVKGRFTISRDNAKNTVYLQMNSLKPEDTAVYYCNVVTKFTGRGYDYWGQGTQVTVSS")
"high polyreactivity"
>>> measured_value("QVQLVESGGGLVQAGGSLRLSCTASGIIFGTYAMGWYRQAPGKERELVAAISSSGVSTYYADSVKGRFTISRDNAKYTDYLQMNSLKPEDTAVYYCAAPLHYGYYYCGQGTQVTVSS")
"high polyreactivity"
>>> measured_value("QVQLVESGGGLVQAGGSLRLSCAASGITFDWNAMGWYRQAPGKERELVAAISSGASTYYADSVKGRFTISRDNAKNTVYLQMNSLKPEDTAVYYCAKRHAINIHAVGPYYTSMDYWGQGTQVTVSS")
"low polyreactivity"
>>> measured_value("QVQLVESGGGLVQAGGSLRLSCAASGSIFVINAMGWYRQAPGKERELVAAIDWSGDSTYYADSVKVRFTISRDNAKNTVYLEMNSLKPEDTAVYYCAADLDSRGTYGRYEYWGQGTQVTVSS")
"low polyreactivity"

Query sequence follows.
Given `QVQLVESGGGLVQAGGSLRLSCAASGFTFYSYAMGWYRQAPGKERELVAAISWSGTRTYYADSVKGRFTISRDIAKNTVYLQMNSLKPEDTAVYYCAARGYRYGYGYWGQGTQVTVSS` , state its recorded polyreactivity (PSR sort gate).
high polyreactivity

###

- protocol.details: yeast display, Sf9 membrane polyspecificity reagent, FACS + sequencing; frameworks hold sequencing errors
measured.parameter: polyreactivity (PSR sort gate)

>>> measured_value("QVQLVESGGGLVQAGGSLRLRCAASGSTYVYAIGWYRQAPGKDRELVASISWSDSSTYYADSVKGRFTISRDNAKNTVYLQMNSLKPEETAFYYCNADQGTRDSDYWGQGTQVTVSS")
"low polyreactivity"
>>> measured_value("QDQLVESGGGLVQAGGSLRLSCAASGRTFNYYGMGWYRQAPGKERELVAAISRGGTTNYADSVKGRFTISRDNAKNTVYLQMNSLKPEDTAVYYCAKGRSHWHSYQYVRPNYDYLGQGTQVTVSS")
"high polyreactivity"
>>> measured_value("QVQLVESGGGLVQAGGSLRLSCAASGSIFSYYAMGWYRQAPGKERELVAAISKRGASTYYADSVKGRFTISRDNAKNTVYLQMNSLKPEDTAVYYCAARPYGGGRRSIYYYWGQGTQVTVSS")
"high polyreactivity"
>>> measured_value("QVQLVESGGGLVQAGGSLCLSGAASGITFRFYAMGWYRQAPGKERELVAAISWSGGRTYYADSVKWRFTISRDNAKNTVYLQMNSLKPEDTAVYYCAAVASSVPGYDYWGQGTQVTVSS")
"low polyreactivity"

Record polyreactivity (PSR sort gate) per entry; entries follow.
1. QVQLVESGGGLVQAGGSLRLSCAASRSIFRGYAMGWYRQAPVKETELVAAITQRAGSTYYADSVKGRFTISRDNAKNTVYLQMISLKPEDTAVYYCAADFYYAYYWGQGTQVTVSS
2. QVQLVESGGGLVQAGGSLRLSCAASGFTFPWYAMGWYRQAPGKERELVAAISTSGGSTYYADSVKGRFTISRDNAKNTVYLQMNSLKPEDTAVYYCAVGRKFGRYRVPFVVPYEYWGQGTQVTVSS
3. QVHLVESGGGLVQAGGSLRLSCAASGSTFFLYAMGWYRQAPGKERELVAAISSGGSTYYADSVKGRFTISRDNAKNTVYLQMTRLKPEDTAVYYCARDRIDTTDRTWRGDYWGQGTQATVSS
4. QVQLVESGGGLVQAGGSLRLSCAASGRIFVSYDMGWYRQAPGKEREFVAAIRRSGSSTYYADSVKGRFTISRDNAKNTVYLQMNSLKPEDTAVYYCAAYQRSRTLRRYDYWGQGTQVTVSS
5. QVQLGESGGGLVQAGGSIRLSCAASGRTFYGYAMGWYRQAPGTERELVAAISYSGARTYYADSVKGRFTISRDNAKHTVNLQMNSLKPEDTAVYYCAATRAYWIGHLDYWGQGTQVTVSS

1. low polyreactivity
2. high polyreactivity
3. low polyreactivity
4. high polyreactivity
5. high polyreactivity

Please supply polyreactivity (PSR sort gate) for each of the following items, keeping them in order.
1. QVQLVESGGGLVQAGGSLRLSCAASGLTFGSYTMGWYRQAPGRERDLVAAITSDGSTNYADSVKGRFTISRDNAKNTVYLQMNSLKPEDTAVYYCNKGETLYGSVPYDYWGQGTQVTVSS
2. QVQLVESGGGLVQAGGSLRLSCAASGSIFVWYDLGWYRQAPGKERELVATISLSGVSTYYADSVKGRFTISRDNAKNTVYLQMNSLKPEDTAVYYCAADFVEQGEDDYWGQGTQVTVSS
3. QVQLVESGGGLVQAGGSLRLSCAASGRIFGWYTMGWYRQAPGKERELVAVISSGGSTNYADSVKGRFTISRDNAKNTVYLQMNSLKPEDTAVYYCAAGGQGGDFGDDYWGQGTQVTVSS

1. high polyreactivity
2. low polyreactivity
3. high polyreactivity

Your task in this section: give polyreactivity (PSR sort gate) for each listed record.
1. QVQLVESGGGLVQAGGSHRLSCAASGITFSTYAKGGYRQAPGKERELVAAITKSGGSTYYADSVKGRFTISRDTAKNTVYLQMNSLKPEDTAVYYCAAEGDWRGSALYNYWGLGTQVTVSS
2. QVQLVESGGGLVQAGGSLRLSCAASGGIFSYYAMGWSRQSPGKEREFVAAIDWGGGSTYYADSVKGRFTISRDNAKNTLNLQMNSLKPEDTAVYYCAAEIYPIRWDDYDYWGQGTQVTVSS
3. QVQLVESGGGLVQAGGSLRLSCAASGLTFVQYTMGWYRQAPGKERELVAVITSASSTNYADSVKGRFTISRDNAKNTVYLQMNSLKPEDTAVYYCNATTYPYYTNSYQYEYWGQGTQVTVSS

1: low polyreactivity; 2: low polyreactivity; 3: low polyreactivity

Consider the following items and state reported polyreactivity (PSR sort gate) for each.
1. QVQLVESGGGLVQAGGSLRLSCAASGRIFTSNAMGWYRLAPGKERELVAAISSSSGSTYYADSVKGRFTISRDNAKNTVYLQMNSLKPEDTAVYYCAARTWRVSGTYKYDYWGQGTQVTVSS
2. QVQLVESGGGLVQAGGSLRLSCAASGSTFTTYAMGWYRQSPGKERELVAVITDSGGTYYADSVKGRFTISRDNAKNTVYLQMNSLKPEDTAVYYCNRVFPPTDYEFDSWGQGTQVTVSS
3. QVQLVESGGGLVQAGGSLRLSCAASGSTSYRYAMGWYRQAPGKERELVATITSGGRTYYADSVKGRFTISRDNAKNTVYLQMNSLKPEDTAVYYCNKLNYWYKHYYWGQGTQVTVSS
4. QVQLVESGGGLVQAGGSLRLSCAASGHTLAVNAKGWYRQATGKERELVAAITRSGVTTSYADSVKGRFTISRDNAKNTVYLQMNSLKPEDTAVYYCAAQLDASYLTGGWRRHYNYWGQGTQVTVSS
5. QVQLVESGGGLVPAGGSLRLSCAGSGFIFYKYAMGWYRQAPGKERELVAAITRGGSTNYADSVKGRFTSSRDKAKNTVYLQMNSLKPEDTAVYYCAAGNRYGVRQLYQIVTRYYWGQGTQVTVSS
6. QVQLVESGGGLVQAGGSLRLSCAASGSIAHYAMGWYRQAPGKERELVAAINWSGGSTNYADSVKGRFTISRDNAKNTVYLQMNSLKPEDTAVYYCNAAGGYKPYLQDVASRYDYWGQGTQVTVSS

["low polyreactivity", "low polyreactivity", "high polyreactivity", "low polyreactivity", "high polyreactivity", "high polyreactivity"]
